biological target: Adenosine receptor A1 (Homo sapiens); assay: Percent change in cAMP content of CHO (Chinese hamster ovary) cells expressing human Adenosine A1 receptor at 0.01 uM; assay type: functional, cell-based
property: Change (%)

Take a look at these entries with their results.
Cc1sc(N)c(C(=O)c2ccc(Br)c3ccccc23)c1C	-8
Cc1cc(C(=O)c2c(N)sc3c2CCC3)cc2ccc(Cl)cc12	4
COc1ccc(C(=O)c2c(N)sc(C)c2C)c2ccccc12	9
COc1ccc(C2SCc3c(sc(N)c3C(=O)c3cccc4ccccc34)S2)cc1 (stereo unspecified)	18

P: Cc1cc(C(=O)c2c(N)sc3c2CCN(Cc2ccccc2)C3)cc2ccccc12
Q: Nc1sc2c(c1C(=O)c1ccc(I)c3ccccc13)CCCC2
Looking at P and Q , which one comes out lower in Change terms? // output: label of the selected item
Q
(Q: -3%, P: -0%)

====

Biological target: Adenosine receptor A1 (Homo sapiens) (UniProt P30542)
Sequence (whole entry): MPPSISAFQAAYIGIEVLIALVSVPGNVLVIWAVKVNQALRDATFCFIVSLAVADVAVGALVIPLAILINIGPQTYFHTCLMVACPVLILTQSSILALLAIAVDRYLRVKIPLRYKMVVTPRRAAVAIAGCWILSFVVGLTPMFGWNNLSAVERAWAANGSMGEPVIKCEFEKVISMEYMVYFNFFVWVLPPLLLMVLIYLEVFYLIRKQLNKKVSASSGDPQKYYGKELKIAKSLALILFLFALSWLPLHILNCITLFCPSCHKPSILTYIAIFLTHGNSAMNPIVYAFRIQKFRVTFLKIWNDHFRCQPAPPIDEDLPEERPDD
Assay: Dissociation of [3H]CCPA from Adenosine A1 receptor in CHO cells at 10 uM as percent K-1
Assay type: cell-based
property: K-1 decrease (%)

Take a look at these entries with their results.
Nc1sc2c(c1C(=O)c1ccc(Br)c3ccccc13)CCC2	4
Cc1sc(N)c(C(=O)c2cccc(C(F)(F)F)c2)c1C	30
Nc1sc2c(c1C(=O)c1ccc(I)c3ccccc13)CCC2	29

a: Nc1sc2c(c1C(=O)c1ccc(Br)c3ccccc13)CCCC2
b: Nc1sc2c(c1C(=O)c1cccc3ccccc13)CCC2
c: Nc1sc2c(c1C(=O)c1ccc3ccccc3c1)CCCC2
Rank entries according to their K-1 decrease, from the largest number down. Write the labels, ordered according to the request.
a, c, b

====

Molecular target: Adenosine receptor A1 (Homo sapiens)
Sequence (whole entry): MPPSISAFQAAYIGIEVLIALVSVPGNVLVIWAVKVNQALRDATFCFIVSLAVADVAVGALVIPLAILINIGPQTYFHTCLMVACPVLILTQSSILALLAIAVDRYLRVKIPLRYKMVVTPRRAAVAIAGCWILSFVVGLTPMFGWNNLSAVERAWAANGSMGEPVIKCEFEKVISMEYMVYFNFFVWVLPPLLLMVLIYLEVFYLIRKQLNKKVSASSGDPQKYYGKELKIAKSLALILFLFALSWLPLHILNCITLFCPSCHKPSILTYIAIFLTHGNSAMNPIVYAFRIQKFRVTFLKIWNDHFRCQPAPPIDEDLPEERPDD
Assay: Percent change in cAMP content of CHO (Chinese hamster ovary) cells expressing human Adenosine A1 receptor at 1 uM
Type: functional, cell-based
property: Change (%)

Reference set, count: 3
Nc1sc2c(c1C(=O)c1cccc3ccccc13)CCC(Cc1ccccc1)C2 (configuration not stated)	-14
Cc1cc(C(=O)c2c(N)sc3c2CCCC3)cc2ccc(Cl)cc12	-11
Nc1sc2c(c1C(=O)c1ccc3ccccc3c1)CCN(Cc1cccnc1)C2	41

A: Nc1sc2c(c1C(=O)c1ccc3ccccc3c1)CCN(Cc1ccccc1Cl)C2
B: Cc1ccc(C(=O)c2c(N)sc3c2CCC3)c2ccccc12
Which has the higher Change, A or B ? Write down the label attached to your selection.
A
(A: -10%, B: -17%)

a: Cc1sc(N)c(C(=O)c2ccc(C)c3ccccc23)c1C
b: COc1ccc(C(=O)c2c(N)sc3c2CCN(Cc2ccccc2)C3)c2ccccc12
Input pair: a , b . Output: entry with lower Change. Please reply using the label of the selected record.
a

====

molecular target: Adenosine receptor A1 (Homo sapiens); assay: Percent change in cAMP content of CHO (Chinese hamster ovary) cells expressing human Adenosine A1 receptor at 10 uM; type: functional, cell-based
property: Change (%)

Consider the following illustrative entries.
Nc1sc2c(c1C(=O)c1ccc(Br)c3ccccc13)CCCC2	-72
Cc1sc(N)c(C(=O)c2cc(C)c3ccccc3c2)c1C	-22
Cc1cc(C(=O)c2c(N)sc3c2CCN(Cc2ccccc2)C3)cc2ccc(Cl)cc12	-9
COc1ccc(C(=O)c2c(N)sc3c2CCC3)c2ccccc12	-35
Nc1sc2c(c1C(=O)c1ccc3ccccc3c1)CCN(Cc1ccc(F)cc1)C2	-8
Nc1sc2c(c1C(=O)c1ccc(Br)c3ccccc13)CCC2	-67

P: Cc1sc(N)c(C(=O)c2ccc(Cl)c3ccccc23)c1C
Q: Nc1sc2c(c1C(=O)c1ccc3ccccc3c1)CCC(c1ccccc1)C2 (stereo not drawn)
R: COc1ccc(C2SCc3c(sc(N)c3C(=O)c3cccc4ccccc34)S2)cc1 (stereo not drawn)
S: Cc1cc(C(=O)c2c(N)sc3c2CCCC3)cc2ccccc12
T: Cc1ccc(C(=O)c2c(N)sc3c2CCN(Cc2ccccc2)C3)c2ccccc12
Rank order required: Change, descending. Output spec: labels arranged per the requested ranking.
Q, R, S, T, P

====

Target: Adenosine receptor A3 (Homo sapiens) (UniProt P0DMS8)
Sequence (whole entry): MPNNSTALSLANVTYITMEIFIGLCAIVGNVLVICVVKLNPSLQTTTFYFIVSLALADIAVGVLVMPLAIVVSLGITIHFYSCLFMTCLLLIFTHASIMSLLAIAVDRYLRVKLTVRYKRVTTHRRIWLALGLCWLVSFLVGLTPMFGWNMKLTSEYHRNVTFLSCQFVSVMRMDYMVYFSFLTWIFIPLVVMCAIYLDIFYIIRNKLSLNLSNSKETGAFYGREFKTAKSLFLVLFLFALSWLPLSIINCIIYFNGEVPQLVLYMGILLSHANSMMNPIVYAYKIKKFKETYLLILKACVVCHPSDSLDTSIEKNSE
Assay: Ability to displace the binding of [3H]-MRE 3008-F20 to the ligand binding site of CHO:hA3 (human Adenosine receptor) at concentration of 10 uM
property: inhibition (%)

Some entries whose results are on file:
Cc1sc(N)c(C(=O)c2ccc3ccccc3c2)c1C	-0
Cc1cc(C(=O)c2c(N)sc3c2CCC3)cc2ccccc12	-0
Nc1sc2c(c1C(=O)c1ccc(Cl)c3ccccc13)CCCC2	30.5
Nc1sc2c(c1C(=O)c1ccc3ccccc3c1)CCN(Cc1ccccc1F)C2	-0
Nc1sc2c(c1C(=O)c1ccc3ccccc3c1)CCCC2	-0
Cc1sc(N)c(C(=O)c2cccc(C(F)(F)F)c2)c1C	21

P: Nc1sc2c(c1C(=O)c1ccc(Cl)c3ccccc13)CCC2
Q: Nc1sc2c(c1C(=O)c1ccc3ccccc3c1)CCN(Cc1ccccc1)C2
R: Nc1sc2c(c1C(=O)c1ccc(I)c3ccccc13)CCCC2
Rank the items in ascending order with respect to inhibition. Please reply with the labels ordered as requested. Many thanks.
P, Q, R

====

target: Adenosine receptor A1 (Homo sapiens) (UniProt P30542); test: Percent change in cAMP content of CHO (Chinese hamster ovary) cells expressing human Adenosine A1 receptor at 1 uM; assay type: functional, cell-based
property: Change (%)

Cc1sc(N)c(C(=O)c2ccc(I)c3ccccc23)c1C	-19
Cc1ccc(C(=O)c2c(N)sc3c2CCN(Cc2ccccc2)C3)c2ccccc12	-13

A: Cc1sc(N)c(C(=O)c2ccc3ccccc3c2)c1C
B: Cc1cc(C(=O)c2c(N)sc3c2CCN(Cc2ccccc2)C3)cc2ccc(Cl)cc12
C: Nc1sc2c(c1C(=O)c1ccc(Br)c3ccccc13)CCN(Cc1ccccc1)C2
D: Cc1sc(N)c(C(=O)c2ccc(Br)c3ccccc23)c1C
Form: Sort by [Change] Order [ ascending ] Provide the ranking by listing each label in its place in the requested order.
C, A, B, D

====

molecular target: Adenosine receptor A1 (Homo sapiens) (UniProt P30542); assay: Percent change in cAMP content of CHO (Chinese hamster ovary) cells expressing human Adenosine A1 receptor at 1 uM; type: functional, cell-based
property: Change (%)

Reference set, count: 4
Cc1sc(N)c(C(=O)c2ccc3c(c2)Cc2ccccc2-3)c1C	-10
Nc1sc2c(c1C(=O)c1ccc3ccccc3c1)CCN(Cc1ccccc1F)C2	-10
Nc1sc2c(c1C(=O)c1ccc3ccccc3c1)CCN(Cc1cccc(Cl)c1)C2	7
Cc1sc(N)c(C(=O)c2cccc(C(F)(F)F)c2)c1C	-13

a: Nc1sc2c(c1C(=O)c1ccc(I)c3ccccc13)CCCC2
b: Nc1sc2c(c1C(=O)c1ccc(I)c3ccccc13)CCN(Cc1ccccc1)C2
For the pair a and b , which member has the lower Change number? Kindly state the label of the option you pick.
a
